- assay_target: Cytochrome P450 1B1 (Homo sapiens, UniProt Q16678)
- Sequence (Q16678 whole entry): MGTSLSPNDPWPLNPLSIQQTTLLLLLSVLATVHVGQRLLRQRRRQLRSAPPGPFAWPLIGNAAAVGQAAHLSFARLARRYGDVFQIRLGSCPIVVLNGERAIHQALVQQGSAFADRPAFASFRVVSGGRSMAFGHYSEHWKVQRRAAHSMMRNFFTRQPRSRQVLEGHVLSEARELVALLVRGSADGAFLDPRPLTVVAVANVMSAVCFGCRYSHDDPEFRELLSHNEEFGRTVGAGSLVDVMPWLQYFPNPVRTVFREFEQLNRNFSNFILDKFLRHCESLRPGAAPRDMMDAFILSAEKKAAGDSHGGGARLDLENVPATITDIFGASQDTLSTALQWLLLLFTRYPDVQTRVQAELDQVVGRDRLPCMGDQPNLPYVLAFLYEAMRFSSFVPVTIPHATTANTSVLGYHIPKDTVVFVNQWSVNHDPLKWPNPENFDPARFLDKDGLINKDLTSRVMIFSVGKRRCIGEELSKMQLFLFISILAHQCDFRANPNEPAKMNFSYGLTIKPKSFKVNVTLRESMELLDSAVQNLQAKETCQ
- run_description: Inhibition of human recombinant CYP1B1 using 7-ethoxyresorufin as substrate preincubated with enzyme for 5 mins followed by fluorescent substrate and NADPH addition and measured after 35 mins by EROD assay
measured_parameter: IC50 (nM)

Below, 5 compounds whose answers are already recorded.
>>> recorded_number("FCCNc1nc(-c2ccc(I)cc2)nc2ccccc12")
0.24
>>> recorded_number("CNc1nc(-c2ccc(I)cc2)nc2ccccc12.Cl")
0.000168
>>> recorded_number("COc1ccc(-c2nc(N)c3ccccc3n2)cc1")
2.48
>>> recorded_number("Cl.Nc1nc(-c2ccc(I)cc2)nc2ccccc12")
0.02
>>> recorded_number("Cc1ccc(-c2nc(N)c3ccccc3n2)cc1")
1.69

a = CNc1nc(-c2ccc(I)cc2)nc2ccccc12
b = Nc1nc(-c2ccc(Br)cc2)nc2c1ccc1ccccc12
Of a and b , which one carries the higher reported IC50? Could you answer with the label of the item you picked?
b
